// data source = the supplement of paper PMC6555819

Tested on: VDR:RXRa (NR concentration 270 nM, RXRa partner concentration 90 nM)
Test summary: PBM binding z-score (relative to random genomic background probes); higher = stronger binding; sequences stand for … in GC…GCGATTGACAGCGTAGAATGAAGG
I'd be grateful if you could share measured PBM binding z-score for these entries.

GCTTGTAGACCAAGGTTAAGAAAGACTAAGCTAA; 0.0143
TCTAGTTGGTCAAAGGTCACACACTCGAAATGCG; 5.37
TCTATTAGTTGAAGGGCGACCGACGAGTCCGTTT; 0.925
CAAACTGGGTCAAAGGTCAAAGTCGAGCCAACCA; 6.65
TCTTGTAGATCAACAGGAGGTTAAGATAGATCGA; 0.488
TAGCCTAGGTCATGCGGGCGAGTATAGTGTCGGC; 1.72
ATATGTAGGTTACATCCGGGTAATTCAGGCTATG; 0.536
TAGCCTAGGTCATGCGGGCCCGTATAGTGTCGGC; 1.97

# map each sequence to its PBM binding z-score
1. CTACCAAGGTGAACAAGGTCGGTGATTACTATTC
2. CCGACTGGGGCAAGGCTACCATAACGCACAGCCA
3. TCTTGTAGATCAGCAGGTTAAGAATGCTGGCCAA
4. ACTAGCAGGCCAAGCGTCACTCAAGATTAGTCCG
5. CGTCCCAGGTCAAAGGTCAGTGAAGAGATGACGG
6. CCTCGGAGGACAACGGGAGGTCAGAGCTGCCAGA
7. GCGACTGGGGCAAAGAAGGTTACCATAAGGTTGG

[4.17, -0.501, 0.397, -0.477, 6.07, 1.91, 0.733]

# map each sequence to its PBM binding z-score
1. CCTTACGGGTCACTGACAGGTTATATCATTTGGA
2. CCTACTGGGTCATCAGGTCATTGATATCAACGTT
3. ATCGACAGGTCGTGAGGTGAGTATACAGAAAGGC
4. TTACTAAGGTGAGCTGAGGTCGTTGATCCAACTC
5. TCTATTAGTTGAAGGGCACCCGACGAGTCCGTTT
6. ATCTCTAGGTAGAAGTTCAGTGAATCCCGAGGAT
7. CCAGACAGGTGAAACGTAACTCAGTCTGGTACGC
8. GCTAGCAGGCCATTTGGGTCACTTAATGACGGGC

1: 3.81; 2: 4.24; 3: 1.12; 4: 4.42; 5: 1.02; 6: 0.473; 7: -0.217; 8: 0.902

###

Test system: PPARg DBDmut IVT, anti-PPARg (DBD mutation: PPARg1 K132A/R137A, NR concentration 270 nM)
Test summary: PBM binding z-score (relative to random genomic background probes); higher = stronger binding; sequences stand for … in GC…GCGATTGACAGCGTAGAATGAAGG
Quantity measured: PBM binding z-score
One number for each entry.

Here are 3 sequences together with their reported answers.
CCTACCGGGCCATTCAGAGGTCATTGATCATATG; -0.538
CGTCCAAGGTCATAGGAGGTCAGTGCAGACAGAT; 1.49
GCTTACGGTTCAAAGGTTATAGCATGAATAGAAT; 0.999

# map each sequence to its PBM binding z-score
1. ATCTCTAGGTAAAAGTTCAATGAATCCCGAGGAT
2. ACAGACTGGTGAGTGAAGGTAACTCAGCTGGACG

1.61
-0.348
